# targetEntity: MCL-1 (Homo sapiens, UniProt Q07820)
# Sequence (Q07820 whole entry): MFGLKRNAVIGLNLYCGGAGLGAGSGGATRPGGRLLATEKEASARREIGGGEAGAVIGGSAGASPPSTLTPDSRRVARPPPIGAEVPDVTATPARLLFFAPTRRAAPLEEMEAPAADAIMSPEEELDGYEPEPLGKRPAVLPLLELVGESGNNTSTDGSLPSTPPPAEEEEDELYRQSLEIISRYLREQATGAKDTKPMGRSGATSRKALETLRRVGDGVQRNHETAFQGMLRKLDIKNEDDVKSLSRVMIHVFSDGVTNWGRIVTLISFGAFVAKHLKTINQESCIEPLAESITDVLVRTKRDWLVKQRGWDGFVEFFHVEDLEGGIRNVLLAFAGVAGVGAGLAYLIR
# test: Protein-protein interaction assay MCL-1/Noxa BH3 peptide (MCL-1 assay), TR-FRET
# Type: binding
# setupConditions: MBP-MCL-1 / Noxa BH3-derived peptide, median
readoutKind: IC50 (µM)

// below: answered compounds
Q) Form: Entry = Cc1c2c(nn1C)COCCCCn1c(C(=O)O)c(CCOc3ccc4ccccc4c3)c3cccc-2c31 (racemic) | System = MCL-1 (Homo sapiens, UniProt Q07820) | IC50 = ____
A) 0.0409

Q) Form: Entry = CC(C)OCc1nn(C)c2c1-c1cccc3c(CCCOc4cccc5ccccc45)c(C(=O)O)n(c13)C/C=C\COC2 (racemic) | System = MCL-1 (Homo sapiens, UniProt Q07820) | IC50 = ____
A) 0.0269

[I] Cc1nn(C)c2c1-c1cccc3c(CCCOc4cccc5ccccc45)c(C(=O)O)n(c13)CCCOC2 (racemic) [Example 043]
[II] Cc1c2c(nn1CCN1CCOCC1)COCCCCn1c(C(=O)O)c(CCCOc3cccc4cc(F)ccc34)c3cccc-2c31 (single isomer, unassigned) [Example 286]
[III] CCCc1nn(C)c2c1-c1c(C)ccc3c(CCCOc4cccc5ccccc45)c(C(=O)O)n(c13)CCCCOC2 (single isomer, unassigned; enantiomer 1) [Example 188]
Q) Order the records by IC50, with each subsequent value no larger than the one before. Show the ranking through the labels, in the order asked for.
A) II, I, III

[I] Cc1c2c(nn1CCN1CCOCC1)COCCCCn1c(C(=O)O)c(CCCOc3cccc4ccccc34)c3cccc-2c31 (racemic) [Example 053]
[II] Cc1c2c(nn1C1CC1)COCCCCn1c(C(=O)O)c(CCCOc3cccc4ccccc34)c3cccc-2c31 (single isomer, unassigned; enantiomer 1) [Example 093]
[III] CCc1nn(C)c2c1-c1cccc3c(CCCOc4cccc5cc(C(F)(F)F)ccc45)c(C(=O)O)n(c13)CCCCOC2 (racemic) [Example 313]
[IV] Cn1nc(COCc2ccc(C(N)=O)cc2)c2c1COCCCCn1c(C(=O)O)c(CCCOc3cccc4ccccc34)c3cccc-2c31 (racemic)
[V] Cn1nc(COc2ccccc2)c2c1COCCCCn1c(C(=O)O)c(CCCOc3cccc4ccccc34)c3cccc-2c31 (single isomer, unassigned) [Example 1-79]
Q) Sort the compounds on IC50; start with the lowest figure. Show the ranking through the labels, in the order asked for.
A) II, I, IV, III, V

[a] Cc1nn(C)c2c1-c1cccc3c(CCCOc4cccc5c(Cl)cccc45)c(C(=O)O)n(c13)CCCCOC2 (racemic)
[b] CN1CCCn2c(C(=O)O)c(CCCOc3cccc4ccccc34)c3cccc(c32)-c2c(COc3ccc(S(C)(=O)=O)cc3)nn(C)c2C1 (single isomer, unassigned) [Example 1-49]
Q) Pick one, a or b : lowest reported IC50. Indicate which entry you chose by stating its label.
A) a
